This collection of values is drawn from PubChem BioAssay AID488969.

Assay System: Metabotropic glutamate receptor 8 (Rattus norvegicus) (UniProt P70579)
Sequence (P70579 whole entry, looked up): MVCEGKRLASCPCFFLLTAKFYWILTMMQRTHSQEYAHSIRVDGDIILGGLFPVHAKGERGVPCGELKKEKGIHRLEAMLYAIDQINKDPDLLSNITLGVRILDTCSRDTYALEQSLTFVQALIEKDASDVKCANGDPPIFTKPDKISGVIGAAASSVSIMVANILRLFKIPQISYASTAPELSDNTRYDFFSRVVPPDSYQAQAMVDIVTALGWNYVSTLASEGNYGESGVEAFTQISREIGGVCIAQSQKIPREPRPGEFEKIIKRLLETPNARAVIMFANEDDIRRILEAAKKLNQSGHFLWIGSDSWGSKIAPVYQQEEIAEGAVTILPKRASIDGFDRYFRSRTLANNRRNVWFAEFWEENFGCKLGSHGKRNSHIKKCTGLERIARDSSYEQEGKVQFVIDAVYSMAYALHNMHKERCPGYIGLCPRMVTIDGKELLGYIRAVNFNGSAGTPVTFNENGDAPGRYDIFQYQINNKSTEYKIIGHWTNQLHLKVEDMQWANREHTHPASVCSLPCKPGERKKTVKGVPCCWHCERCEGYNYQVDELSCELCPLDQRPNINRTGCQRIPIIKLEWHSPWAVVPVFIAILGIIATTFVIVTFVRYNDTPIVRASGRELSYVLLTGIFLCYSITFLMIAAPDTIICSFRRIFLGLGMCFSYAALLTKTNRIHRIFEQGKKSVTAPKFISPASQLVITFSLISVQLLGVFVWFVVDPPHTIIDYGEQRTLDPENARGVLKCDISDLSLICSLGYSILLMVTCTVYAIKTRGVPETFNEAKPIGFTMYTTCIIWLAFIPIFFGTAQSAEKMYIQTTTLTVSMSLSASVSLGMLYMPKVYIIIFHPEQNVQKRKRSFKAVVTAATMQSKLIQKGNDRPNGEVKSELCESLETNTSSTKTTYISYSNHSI
Test Details: mGluR8 Gi/Go-coupled signaling modulation – cell-based, rat, thallium flux, HTS, primary screen (AID 488969)
Measurement Parameters: HEK293 rat mGluR8, GIRK (G protein-gated inwardly rectifying potassium channel) thallium flux, FluoZin2; at 10 µM; stronger effect = higher value; submaximal glutamate (EC20) added with thallium
Over roughly 110,000 compounds, “z-score” has its median near -0.1; the highest 2% begin near 2. This is one part of a sample in which the highest values are shown more often than they occur.
Recorded Metric: z-score

compound="CC1(C)CC(NS(=O)(=O)c2ccc(S(=O)(=O)N3CCOCC3)cc2)CCO1 (stereo not given)" recorded_metric=z-score value_measured=2.05
compound=COc1ccc(-c2[nH]ncc2/C=N\NC(=O)c2ccc(C(C)(C)C)cc2)cc1OC recorded_metric=z-score value_measured=-0.413
compound=CC(=O)N1CCN(S(=O)(=O)c2ccc(S(=O)(=O)NC3CC3)cc2)CC1 recorded_metric=z-score value_measured=2.05
compound="CN(C)S(=O)(=O)c1ccc(S(=O)(=O)NC2CCOC(C)(C)C2)cc1 (stereo not given)" recorded_metric=z-score value_measured=-1.16
compound=O=C(c1ccco1)N1CCN(S(=O)(=O)c2ccc(S(=O)(=O)NC3CC3)cc2)CC1 recorded_metric=z-score value_measured=-0.31
